Where these numbers come from: ChEMBL document CHEMBL3259818

Tested on: MCF7
assayExplanation: Cytotoxicity against human MCF7 cells after 2 days by MTT assay
Type: functional, cell-based
measurementConditions: MCF7, 48 h
Exercise: for every item that follows, state its recorded pIC50.
Reminder that pIC50 means the negative base-10 logarithm of the concentration expressed in mol/L.

Query: I am curious: what pIC50 value has been reported for CC(=O)OC[C@H]1O[C@H](O[C@]2(COC(C)=O)O[C@H](CO)[C@@H](O)[C@@H]2OC(=O)/C=C/c2ccc(O)cc2)[C@H](O)[C@@H](OC(C)=O)[C@@H]1O ?
Result: 5.84

Query: Next entry: CC(=O)OC[C@H]1O[C@H](O[C@]2(CO)O[C@H](CO)[C@@H](O)[C@@H]2OC(=O)/C=C/c2ccc(O)cc2)[C@H](OC(C)=O)[C@@H](OC(C)=O)[C@@H]1O
Result: 6.01

Query: Next entry: CC(=O)OC[C@H]1O[C@H](O[C@]2(COC(C)=O)O[C@H](CO)[C@@H](O)[C@@H]2OC(=O)/C=C/c2ccc(O)cc2)[C@H](O)[C@@H](O)[C@@H]1OC(C)=O
Result: 5.91

Query: Next entry: COc1cc(/C=C/C(=O)O[C@H]2[C@H](O)[C@@H](CO)O[C@@]2(COC(C)=O)O[C@H]2O[C@H](COC(C)=O)[C@@H](O)[C@H](O)[C@H]2OC(C)=O)ccc1O
Result: 6.11
